test system: MS2 coat protein; assay: apparent KD of MS2 coat protein; designed switch direction (-1 OFF switch, 1 ON switch): 1; higher = weaker reporter binding; details: input ligand: FMN 200 uM
Label 1 when apparent KD of MS2 coat protein is at or above 30 nM; anything below gets -1.

Please indicate if the recorded apparent KD of MS2 coat protein for UUAGUCAUGUAAGGAUAUGCAGCCGAAACGGCUGCAGAAGGUACUAUAAUUACAUGAGGAUCACCCAUGUUAUAAAAUAAAUAU [Mat - Same State NG 1 - JL mod - D63] (Eterna round: R96, puzzle: Same State NG 1) meets or exceeds 30 nM. -1

Please indicate if the recorded apparent KD of MS2 coat protein for GGUCGGACUCACAUGAGGAUCACCCAUGUUGCGGAAACGCCACAGGAUAUCUGUCCGAAAAGGUCAGAGAAGGGUGAACCGACC [Fiskers NG3ss - 63] (Eterna round: R96, puzzle: Same State NG 3) meets or exceeds 30 nM. 1

Please indicate if the recorded apparent KD of MS2 coat protein for GGAGCUGUUAUAGGAUAUCCCGCUCAUUACGCGGGAGAAGGGUGACGCUCACAUGAGGAUCACCCAUGUGGCGUUCCAAAAUAA [Reesti] (Eterna round: R96, puzzle: Same State NG 1) meets or exceeds 30 nM. -1

Please indicate if the recorded apparent KD of MS2 coat protein for UUGAUGUACUGAGGAUAUCGUGUCGUCUGAUUUGACAUGAGGAUCACCCAUGUGGGAAGUGGUAUCGAGAAGGCAGUUUUCUUA [JR_SSNG2_Sub028] (Eterna round: R96, puzzle: Same State NG 2) meets or exceeds 30 nM. 1

Please indicate if the recorded apparent KD of MS2 coat protein for UGAAUAAUGUUAGGAUAUACAUGAGGAAUCCUCGUAGAAGGAACAUGACAUGAGGAUCACCCAUGUAGCGCUCCGUAGAGCGCA [Mat - Same State NG 1 - JL mod - D49] (Eterna round: R96, puzzle: Same State NG 1) meets or exceeds 30 nM. 1

Please indicate if the recorded apparent KD of MS2 coat protein for UUGAAGAAUUAAGGAUAUCGAGUCGUCAAAUUAAACAUGAGGAUCACCCAUGUGGGUUGCGGUAUCGAGAAGGUAAAUUACUAG [JL JR Sub099 mod 4] (Eterna round: R96, puzzle: Same State NG 2) meets or exceeds 30 nM. -1

Please indicate if the recorded apparent KD of MS2 coat protein for UCACCUAUCGACAUGAGGAUCACCCAUGUGGAUUGAGCUUCCAAGGAUAUCGGCGCACAACCCAUCGAGAAGGUGGAAAGAUAC [Eternabot solution 32] (Eterna round: R96, puzzle: Same State NG 3) meets or exceeds 30 nM. -1

Please indicate if the recorded apparent KD of MS2 coat protein for CGUCGUUUGAUAGGAUAUCGCUUUACAUGAGGAUCACCCGGGUUUACCACGCUGGUUUUUCUUUCCGAGAAGGAUUCUGAUGUU [salish99_SSNG02_r04_028] (Eterna round: R96, puzzle: Same State NG 2) meets or exceeds 30 nM. 1

Please indicate if the recorded apparent KD of MS2 coat protein for GGGUAGAUUUGAGGAUAUCCUUAACCAACAUGAGGAUCACCCAUGUCCAAAAGAGUUCAUUUACCGGAGAAGGCAGAUGCACCC [Eternabot solution 50] (Eterna round: R96, puzzle: Same State NG 2) meets or exceeds 30 nM. 1

Please indicate if the recorded apparent KD of MS2 coat protein for CUUUUUCACUAUACAUGAGGAUCACCCAUGUUAUCAUCAUGAGAGGAUAUCGUAAUAGGAUUUUUCGAGAAGGCUCUAAAGUAU [JR_SSNG3_Sub079] (Eterna round: R96, puzzle: Same State NG 3) meets or exceeds 30 nM. -1

Please indicate if the recorded apparent KD of MS2 coat protein for AUUAAACAUGAGGAUCACCCAUGUCAACAAAGUCGAGGAUAUGGGCAAAUAAAAUAUGAACCAGAAGGCGAAUAAU [salish99_ss1_r3_064] (Eterna round: R96, puzzle: Same State 1) meets or exceeds 30 nM. 1

Please indicate if the recorded apparent KD of MS2 coat protein for ACUAUUUAUGCAGGAUAUGAUUAACAUGAGGAUCACCCAUGUGGUGUUGUGAGUAAGGAGAGUGAUCAGAAGGGCAUUUUUUUU [JMF's solution 75] (Eterna round: R96, puzzle: Same State NG 2) meets or exceeds 30 nM. 1

Please indicate if the recorded apparent KD of MS2 coat protein for GUGCUCGUGUGAGGAUAUGCUUCCGGGUCGGCUGCAGAAGGUACUAUUAUACAUGAGGAUCACCCAUGUCGCUUUUCUCCGGUG [salish99_SSNG1_r04_917] (Eterna round: R96, puzzle: Same State NG 1) meets or exceeds 30 nM. 1

Please indicate if the recorded apparent KD of MS2 coat protein for AGAUGUUAAUUAGGAUAUGGUCACAUGAGGAUCACCCAUGUAACGAUGAUACGAUGUGGUCAAGACUAGAAGGGAUCGCUAACA [SameState NG2 #72] (Eterna round: R96, puzzle: Same State NG 2) meets or exceeds 30 nM. 1

Please indicate if the recorded apparent KD of MS2 coat protein for AGUCCAGCCUGAGCUGGACAAAAGCAUGUACAUGAGGAUCACCCAUGUUCAUGUACAAGCUUUUUGCUCGUCUUUAA [salish99_208a_r3_096x] (Eterna round: R96, puzzle: Sensor for hsa-mir-208a) meets or exceeds 30 nM. 1

Please indicate if the recorded apparent KD of MS2 coat protein for AGCUAUUAAUCAGGAUAUAGUGACAUGAGGAUCACCCAUGUAUUGAUGAUUAAAUGUGGUCACCGCUAGAAGGGAUUACUAACA [SameState NG2 #47] (Eterna round: R96, puzzle: Same State NG 2) meets or exceeds 30 nM. -1

Please indicate if the recorded apparent KD of MS2 coat protein for UAGUACAUGCUUUUUGUCUGUCUUAGAUAACAUGAGGAUCACCCAUGUAAGGUGAAAGUUAUAUAGUUUAUGAAUAU [JR_SHM208A_Sub058] (Eterna round: R96, puzzle: Sensor for hsa-mir-208a) meets or exceeds 30 nM. 1

Please indicate if the recorded apparent KD of MS2 coat protein for CCGGUUAAUGGAGGAUAUGGAGCCUUAUUGGCUCCAGAAGGCUAAACAUGAGGAUCACCCAUGUUACCGGCGGUCAAUAGACCG [Eli NG1ss - 61] (Eterna round: R96, puzzle: Same State NG 1) meets or exceeds 30 nM. -1
